# system_tested: human ferroportin (Homo sapiens, UniProt Q9NP59)
# Construct: luciferase reporter (probably NanoLuc, inferred from the Nano-Glo Luciferase Assay System read-out); expressed in transfected cells; host or cells: CHO cells, stably transfected, expression induced with doxycycline
# Sequence (Q9NP59 1-571): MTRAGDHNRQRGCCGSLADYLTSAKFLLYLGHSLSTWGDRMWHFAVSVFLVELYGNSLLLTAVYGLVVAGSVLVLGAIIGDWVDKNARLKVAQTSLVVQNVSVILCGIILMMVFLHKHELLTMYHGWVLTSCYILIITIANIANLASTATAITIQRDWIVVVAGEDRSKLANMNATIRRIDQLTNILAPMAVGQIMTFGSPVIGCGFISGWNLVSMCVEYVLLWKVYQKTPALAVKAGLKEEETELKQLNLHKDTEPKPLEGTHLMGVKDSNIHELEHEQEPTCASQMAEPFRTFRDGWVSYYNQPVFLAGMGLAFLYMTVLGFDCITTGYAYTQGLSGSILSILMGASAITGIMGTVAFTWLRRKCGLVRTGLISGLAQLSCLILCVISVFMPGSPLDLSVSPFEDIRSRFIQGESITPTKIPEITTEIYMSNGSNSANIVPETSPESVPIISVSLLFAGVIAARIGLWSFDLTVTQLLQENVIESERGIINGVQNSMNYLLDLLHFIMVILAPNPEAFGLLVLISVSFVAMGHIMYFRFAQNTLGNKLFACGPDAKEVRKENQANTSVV
# procedure_details: In-vitro ferroportin internalization assay (luciferase reporter)
# Assay type: cell-based
# measurement_conditions: average pEC50; stably-transfected CHO cell line expressing human ferroportin tagged to a luciferase reporter; 6 h incubation with test compound
observable: pEC50

>>> test_value("COCCN(CCOC)c1nc(-c2ccccn2)nc2sc(-c3ccccc3)cc12")
6.4
>>> test_value("CCC1COCCN1c1nc(-c2ccccn2)nc2scc(-c3ccccc3)c12 (stereo not drawn)")
6
>>> test_value("Cc1cc(NCCNC(=O)Cc2ccccc2)nc(-c2ccccn2)n1")
5.2
>>> test_value("c1ccc(-c2csc3nc(-c4ccccn4)nc(N4CCOCC4)c23)cc1")
5.9
>>> test_value("COCC(C)Nc1nc(-c2ccccn2)nc2sc(C)c(-c3ccccc3)c12 (stereo not drawn)")
6
>>> test_value("c1ccc(-c2csc3nc(-c4ccccn4)nc(N4CCN(CCN5CCCC5)CC4)c23)cc1")
5.8
>>> test_value("O=C1C(Nc2cc(C(F)(F)F)nc(-c3ccccn3)n2)CN1c1ccc(F)cc1 (stereo not drawn)")
4.8
>>> test_value("CCN(CCO)c1nc(-c2ccccn2)nc2scc(-c3ccccc3)c12")
6.4
>>> test_value("OCCC1CCCCCN1c1nc(-c2ccccn2)nc2c1CCC2 (stereo not drawn)")
6.7

====

# system_tested: human ferroportin (Homo sapiens)
# Construct: luciferase reporter (probably NanoLuc, inferred from the Nano-Glo Luciferase Assay System read-out); expressed in transfected cells; host or cells: CHO cells, stably transfected, expression induced with doxycycline
# procedure_details: In-vitro ferroportin internalization assay (luciferase reporter)
# Type: cell-based
# measurement_conditions: average pEC50; stably-transfected CHO cell line expressing human ferroportin tagged to a luciferase reporter; 6 h incubation with test compound
observable: pEC50

>>> test_value("OCCN1CCN(c2nc(-c3ccccn3)nc3scc(-c4ccccc4)c23)CC1")
5.3
>>> test_value("O=C(NC1CCN(c2nc(-c3ccccn3)nc3scc(-c4ccccc4)c23)CC1)c1cccnc1")
6.2
>>> test_value("CN(CC(=O)Nc1cccc(F)c1)c1nc(-c2ccccn2)nc2c1CCC2")
7.5
>>> test_value("Cc1sc2nc(-c3ccccn3)nc(N(C)CCN3CCCC3=O)c2c1C")
6.1
>>> test_value("Cc1cc(NC(=O)CN(C)c2nc(-c3ccccn3)nc3scc(-c4ccccc4)c23)no1")
6.3
>>> test_value("OCCOCCNc1nc(-c2ccccn2)nc2scc(-c3ccccc3)c12")
5.7
>>> test_value("Cc1sc2nc(-c3ccccn3)nc(N(C)CC(=O)Nc3ccccc3)c2c1C")
7
>>> test_value("CC(C#N)CN(C)c1nc(-c2ccccn2)nc2sc(-c3ccccc3)cc12 (centres unmarked)")
6
>>> test_value("CC(=O)N1CCN(c2nc(-c3ccccn3)nc3scc(-c4ccccc4)c23)CC1")
5.8
>>> test_value("COc1ccnc(-c2nc3c(c(N(C)CC(=O)N[C@H]4CCC[C@@H]4O)n2)CCC3)c1 (single isomer, unassigned)")
6.8
>>> test_value("c1ccc(-c2csc3nc(-c4ccccn4)nc(N4CCC4)c23)cc1")
5.6
>>> test_value("O=C1CCN(c2nc(-c3ccccn3)nc3scc(-c4ccccc4)c23)CC1")
6
>>> test_value("Cc1cc(NCCC(=O)NCc2ccncc2)nc(-c2ccccn2)n1")
5.3
>>> test_value("CCc1cc(N2Cc3ccccc3N(C)CC2C)nc(-c2ccccn2)n1 (centres unmarked)")
6.3
>>> test_value("CC(C)C(C(=O)Nc1cnn(C)c1)N(C)c1nc(-c2ccccn2)nc2c1CCC2 (single isomer, unassigned)")
7.1
>>> test_value("Cc1sc2nc(-c3ccccn3)nc(NCCNc3ccccn3)c2c1C")
6.4
